# method notes: Cytotoxicity against SK6 cells assessed as reduction in cell viability after 2 days by MTS method
# Type: cell-based, Sus scrofa
# measurement context: pig, 48 h
metric name: Activity

The examples below pair each entry with its known result.
[
  {
    "compound smiles": "CC(=O)OC[C@H]1O[C@@H](Sc2ccc(NC(=O)[C@H]3O[C@@H](n4ccc(=O)[nH]c4=O)[C@H](O[Si](C)(C)C(C)(C)C)[C@@H]3O[Si](C)(C)C(C)(C)C)cn2)[C@H](OC(C)=O)[C@@H](OC(C)=O)[C@@H]1OC(C)=O",
    "metric name": "Activity",
    "assay result": "Dose-dependent effect"
  },
  {
    "compound smiles": "CC(=O)OC[C@H]1O[C@@H](Sc2ccc(NC(=O)[C@H]3O[C@@H](n4ccc(=O)[nH]c4=O)[C@H](O[Si](C)(C)C(C)(C)C)[C@@H]3O[Si](C)(C)C(C)(C)C)cn2)[C@H](OC(C)=O)[C@@H](OC(C)=O)[C@H]1OC(C)=O",
    "metric name": "Activity",
    "assay result": "Dose-dependent effect"
  },
  {
    "compound smiles": "CC(C)(C)[Si](C)(C)OC[C@H]1O[C@@H](Sc2ccc(NC(=O)[C@H]3O[C@@H](n4ccc(=O)[nH]c4=O)[C@H](O[Si](C)(C)C(C)(C)C)[C@@H]3O[Si](C)(C)C(C)(C)C)cn2)[C@H](OC(=O)c2ccccc2)[C@@H](OC(=O)c2ccccc2)[C@@H]1OC(=O)c1ccccc1",
    "metric name": "Activity",
    "assay result": "Dose-dependent effect"
  },
  {
    "compound smiles": "CC(=O)OC[C@H]1O[C@@H](Sc2ccc(NC(=O)CCC(=O)OC[C@H]3O[C@@H](n4ccc(=O)n(C(=O)c5ccccc5)c4=O)[C@H](O[Si](C)(C)C(C)(C)C)[C@@H]3O[Si](C)(C)C(C)(C)C)cn2)[C@H](OC(C)=O)[C@@H](OC(C)=O)[C@@H]1OC(C)=O",
    "metric name": "Activity",
    "assay result": "Dose-dependent effect"
  },
  {
    "compound smiles": "O=C(Nc1ccc(S[C@@H]2O[C@H](CO)[C@@H](O)[C@H](O)[C@H]2O)nc1)[C@H]1O[C@@H](n2ccc(=O)[nH]c2=O)[C@H](O)[C@@H]1O",
    "metric name": "Activity",
    "assay result": "Dose-dependent effect"
  }
]

input: Reported Activity for CC(=O)OC[C@H]1O[C@@H](Sc2ccc(NC(=O)[C@H]3O[C@@H](n4ccc(=O)[nH]c4=O)[C@H](O)[C@@H]3O)cn2)[C@H](OC(C)=O)[C@@H](OC(C)=O)[C@@H]1OC(C)=O : what is it?
output: Dose-dependent effect

input: Reported Activity for CC(=O)OC[C@H]1O[C@@H](Sc2ccc(NC(=O)[C@H]3O[C@@H](n4ccc(=O)[nH]c4=O)[C@@H]4OC(C)(C)O[C@@H]43)cn2)[C@H](OC(C)=O)[C@@H](OC(C)=O)[C@H]1OC(C)=O : what is it?
output: Dose-dependent effect

input: Reported Activity for CC(=O)OC[C@H]1O[C@@H](Sc2ccc(NC(=O)[C@H]3O[C@@H](n4ccc(=O)[nH]c4=O)[C@@H]4OC(C)(C)O[C@@H]43)cn2)[C@H](OC(C)=O)[C@@H](OC(C)=O)[C@@H]1OC(C)=O : what is it?
output: Dose-dependent effect

input: Reported Activity for CC(=O)OC[C@H]1O[C@@H](Sc2ccc(NC(=O)CCC(=O)OC[C@H]3O[C@@H](n4ccc(=O)[nH]c4=O)[C@@H]4OC(C)(C)O[C@@H]43)cn2)[C@H](OC(C)=O)[C@@H](OC(C)=O)[C@H]1OC(C)=O : what is it?
output: Dose-dependent effect

input: Reported Activity for CC(=O)OC[C@H]1O[C@@H](Sc2ccc(NC(=O)CCC(=O)OC[C@H]3O[C@@H](n4ccc(=O)[nH]c4=O)[C@@H]4OC(C)(C)O[C@@H]43)cn2)[C@H](OC(C)=O)[C@@H](OC(C)=O)[C@@H]1OC(C)=O : what is it?
output: Dose-dependent effect
